# credit: paper PMC4278837

- TGT: T1, murine urokinase-type plasminogen activator (muPA) wild type (murine, UniProt P06869 21-433)
- T1 construct: cDNA encoding full length muPA; Two-chain form after plasmin; also called muPA wt; muPA-wt; source: HEK293 6E, transfected; treated with plasmin
- EXPERIMENT SUMMARY: SPR; Biacore T200; uPA variant amine-coupled to a CM5 chip (about 500 RU); peptides injected in HBS with 0.1% BSA, 30 µL/min, 25°C, pH 7.4; 1:1 kinetic fit; KD = koff/kon
- CONDITION LABEL: both partners purified
Bridge positions count the residues as written; N and C are the ends. Square brackets hold non-standard residues; d marks the D form. Ends that are not written are not given here. Ala(1-amidino-4-piperidyl) = N=C(N)N1CCC(C[C@H](N)C(=O)O)CC1; Phe(4-guanidino) = N=C(N)Nc1ccc(C[C@H](N)C(=O)O)cc1
Label class 0 if koff falls below 0.02 s⁻¹; label class 1 in every other case.

| BINDER | ANSWER LABEL |
| --- | --- |
| CPAYSRYLAC (disulfide 1-10 (inferred), mupain-1 with D9A; Rink amide linker resin; C-terminal amide surmised; source: synthetic peptide (solid-phase synthesis, HPLC purified)) [Mupain-1 D9A] | class 1 |
| CPAYS[Ala(1-amidino-4-piperidyl)]YLDC (disulfide 1-10; not fully specified) [mupain-1-16] | class 0 |
| CPAYS[Ala(1-amidino-4-piperidyl)]YLAC (disulfide 1-10; not fully specified) [Mupain-1-16 D9A] | class 0 |
| CPAYS[Phe(4-guanidino)]YLDC (disulfide 1-10) [mupain-1-12] | class 0 |

Exam item: Kindly determine if koff recorded for CPAYSRYLDC (disulfide 1-10 (inferred), Synthesised on a resin with Rink amide linker; source: synthetic peptide (solid-phase synthesis, HPLC purified)) [mupain-1] is above or exactly 0.02 s⁻¹.
Marked response: class 1
